Target: LRRK2, LRRK2 (G2019S), DYRK1, CLK1 and TTK kinases (Homo sapiens)
Construct: other: DYRK1; Kinase HotSpot service (Reaction Biology), ATP 10 uM
Experiment: Enzyme IC50 by Kinase HotSpot service (Reaction Biology Corporation), values marked with *
Conditions: DYRK1, ATP 10 uM
Procedure: Meanwhile, the enzyme IC50 measurement for some compounds was performed using Kinase HotSpot service (Reaction Biology Corporation); during the test, the ATP concentration was 10 uM, where all were conducted under the same condition; and the concentration of the compound was measured by giving a 3-fold concentration gradient with the highest concentration of […], where the values measured using Kinase HotSpot service (Reaction Biology Corporation) were marked with “*”. […]
pIC50: −log10 of the molar value.
Property: pIC50

Previously resolved entries follow.
In [3]: df
Out[3]:
                           substance_smiles                         system_under_test  property  recorded_measurement
0  COc1cc(S(=O)(=O)N2CCC(N3C[C@H]4C[C@@H]3CO4)CC2)ccc1Nc1cc(C2CC2)c2c(C(F)(F)F)c[nH]c2n1  LRRK2, LRRK2 (G2019S), DYRK1, CLK1 and TTK kinases (Homo sapiens)     pIC50                > 7.00
1  O=C(c1ccc(Nc2cc(C3CC3)c3c(C(F)(F)F)c[nH]c3n2)c2c1OCCO2)N1CCC(N2CCOCC2)CC1  LRRK2, LRRK2 (G2019S), DYRK1, CLK1 and TTK kinases (Homo sapiens)     pIC50                > 7.00
2  COc1cc(P2(=O)CCN(C3COC3)CC2)ccc1Nc1cc(C2CC2)c2c(C(F)(F)F)c[nH]c2n1  LRRK2, LRRK2 (G2019S), DYRK1, CLK1 and TTK kinases (Homo sapiens)     pIC50                > 7.00

The compound COc1cc(P2(=O)CCN(C(C)=O)CC2)ccc1Nc1cc(C2CC2)c2c(C(F)(F)F)c[nH]c2n1 , when measured on LRRK2, LRRK2 (G2019S), DYRK1, CLK1 and TTK kinases (Homo sapiens), yielded pIC50 of > 7.00

The compound N#Cc1c[nH]c2nc(Nc3ccc(C(=O)N4CCOCC4)c4c3OCCO4)cc(C3CC3)c12 , when measured on LRRK2, LRRK2 (G2019S), DYRK1, CLK1 and TTK kinases (Homo sapiens), yielded pIC50 of 6.52 to 7.00

The compound O=C(c1ccc(Nc2cc(C3CC3)c3c(C(F)(F)F)c[nH]c3n2)c2c1CCO2)N1CC[C@H](N2CCOCC2)C1 , when measured on LRRK2, LRRK2 (G2019S), DYRK1, CLK1 and TTK kinases (Homo sapiens), yielded pIC50 of > 7.00

----------
Measured inhibition at 0.5 µM, listed per entry for reference.
test system: human DYRK1A and Tau; experiment: Tau phosphorylation inhibition, ClariCELL Kinase Cell-Based Assay (Carnabio); conditions: 0.5 uM
Use % as the unit, but write only the number.

Previously resolved entries follow.
In [3]: df
Out[3]:
                           substance_smiles  recorded_measurement
0  CCCNc1cc(Nc2ccc(S(=O)(=O)N3CCC(N4CCOCC4)CC3)cc2OC)nc2[nH]cc(C(F)(F)F)c12                  15.2
1  O=C(c1ccc(Nc2cc(C3CC3)c3c(C(F)(F)F)c[nH]c3n2)c2c1CCO2)N1CCC(N2CCOCC2)CC1                  28.8
2  CNc1cc(Nc2ccc(C(=O)N3CC[C@H](N4CCOCC4)C3)c3c2OCC3)nc2[nH]cc(C(F)(F)F)c12                  60.6

Consider the additional compound presented here.
What the record says about CNc1cc(Nc2ccc(C(=O)N3CCC(N4CCOCC4)CC3)c3c2OCC3)nc2[nH]cc(C(F)(F)F)c12 : inhibition at 0.5 µM is 65.3

----------
The molecules below have reported IC50 for human GST-CLK1 (129-end) (Homo sapiens, UniProt P49759).

Previously resolved entries follow.
In [3]: df
Out[3]:
                                   molecule                         system_under_test  property  recorded_measurement
0  COCCNc1cc(Nc2ccc(S(C)(=O)=O)cc2OC)nc2[nH]cc(Cl)c12 [Example 87]  human GST-CLK1 (129-end) (Homo sapiens, UniProt P49759)      IC50        301 to 1000 nM
1  O=S(=O)(c1ccc(Nc2cc(C3CC3)c3c(C(F)(F)F)c[nH]c3n2)c2c1OCCO2)N1CCOCC1 [Example 100]  human GST-CLK1 (129-end) (Homo sapiens, UniProt P49759)      IC50        301 to 1000 nM

What the record says about CNc1cc(Nc2ccc(S(C)(=O)=O)cc2OC)nc2[nH]cc(C#N)c12 [Example 123] : IC50 is 301 to 1000 nM

What the record says about CNc1cc(Nc2ccc(C(=O)N3CCC(N4CCOCC4)CC3)c3c2OCO3)nc2[nH]cc(C(F)(F)F)c12 [Example 235] : IC50 is < 100 nM

What the record says about CNc1cc(Nc2ccc(C(=O)N3CCOCC3)c3c2OCCO3)nc2[nH]ccc12 [Example 2] : IC50 is 301 to 1000 nM

----------
Molecular target: LRRK2 (G2019S) (Homo sapiens, UniProt Q5S007, G2019S)
Sequence (Q5S007 970-2527 G2019S limits assumed): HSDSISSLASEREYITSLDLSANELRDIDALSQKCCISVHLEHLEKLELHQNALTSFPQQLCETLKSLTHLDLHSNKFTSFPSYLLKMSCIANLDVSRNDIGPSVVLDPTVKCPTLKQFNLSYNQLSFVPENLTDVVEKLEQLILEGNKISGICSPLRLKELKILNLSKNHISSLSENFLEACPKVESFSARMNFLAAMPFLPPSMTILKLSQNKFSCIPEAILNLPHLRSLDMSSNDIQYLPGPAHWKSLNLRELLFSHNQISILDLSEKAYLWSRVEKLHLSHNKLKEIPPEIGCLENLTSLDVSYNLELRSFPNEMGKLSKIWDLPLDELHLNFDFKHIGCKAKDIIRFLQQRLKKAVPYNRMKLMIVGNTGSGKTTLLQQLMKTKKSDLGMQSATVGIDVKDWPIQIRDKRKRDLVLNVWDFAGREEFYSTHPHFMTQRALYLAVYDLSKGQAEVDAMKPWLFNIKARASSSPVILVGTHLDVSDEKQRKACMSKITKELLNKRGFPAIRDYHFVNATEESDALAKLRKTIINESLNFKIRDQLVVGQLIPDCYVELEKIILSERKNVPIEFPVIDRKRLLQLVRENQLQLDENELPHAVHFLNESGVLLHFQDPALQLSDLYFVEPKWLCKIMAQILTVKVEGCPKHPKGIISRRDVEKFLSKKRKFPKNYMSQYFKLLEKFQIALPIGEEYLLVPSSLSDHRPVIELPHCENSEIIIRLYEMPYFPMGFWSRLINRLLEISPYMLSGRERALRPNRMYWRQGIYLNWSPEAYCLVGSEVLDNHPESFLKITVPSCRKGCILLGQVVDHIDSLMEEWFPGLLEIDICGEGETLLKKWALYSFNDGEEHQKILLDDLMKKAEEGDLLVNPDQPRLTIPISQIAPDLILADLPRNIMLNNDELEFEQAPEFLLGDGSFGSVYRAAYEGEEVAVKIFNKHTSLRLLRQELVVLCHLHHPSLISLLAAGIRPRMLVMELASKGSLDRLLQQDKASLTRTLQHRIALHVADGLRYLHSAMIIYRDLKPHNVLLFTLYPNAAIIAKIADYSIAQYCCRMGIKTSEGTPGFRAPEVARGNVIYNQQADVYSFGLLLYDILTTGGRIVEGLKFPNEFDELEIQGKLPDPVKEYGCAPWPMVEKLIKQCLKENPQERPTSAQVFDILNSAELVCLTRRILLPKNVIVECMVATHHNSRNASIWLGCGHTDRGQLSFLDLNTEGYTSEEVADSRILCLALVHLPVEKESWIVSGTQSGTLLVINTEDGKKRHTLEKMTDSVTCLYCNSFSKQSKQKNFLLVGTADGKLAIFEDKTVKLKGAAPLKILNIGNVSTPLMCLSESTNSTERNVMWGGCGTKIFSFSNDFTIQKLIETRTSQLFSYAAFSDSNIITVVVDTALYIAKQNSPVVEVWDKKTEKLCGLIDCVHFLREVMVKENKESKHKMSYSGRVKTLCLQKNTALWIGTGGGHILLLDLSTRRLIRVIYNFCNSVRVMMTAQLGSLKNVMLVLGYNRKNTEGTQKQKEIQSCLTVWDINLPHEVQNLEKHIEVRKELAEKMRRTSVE
Experiment: LRRK2 G2019S enzyme inhibition, ADP-Glo kinase assay
Experimental: In order to evaluate the inhibitory activity of the compounds according to the present invention on LRRK2, LRRK2 (G2019S), DYRK1, CLK1 and TTK kinases, the following experiment was performed. Example compounds were reacted with the purified human LRRK2 G2019S (L10-12GG, SignalChem) enzyme to evaluate the enzyme inhibitory ability as follows. […]
Structures can show the parent of a compound that is named as a salt.
Measured IC50, listed per entry for reference.

In [3]: df
Out[3]:
                                   compound                         system_under_test  property  recorded_measurement
0  CCNc1cc(Nc2ccc(C(=O)N3CCC(N4CCOCC4)CC3)c3c2OCC3)nc2[nH]cc(C(F)(F)F)c12 [Example 90]  LRRK2 (G2019S) (Homo sapiens, UniProt Q5S007, G2019S)      IC50              < 100 nM

What the record says about CS(=O)(=O)CCNc1cc(Nc2ccc(C(=O)N3CCOCC3)c3c2OCCO3)nc2[nH]cc(C(F)(F)F)c12 [Example 157] : IC50 is < 100 nM

What the record says about CCNc1cc(Nc2ccc(C(=O)N3CCOCC3)c3c2OCCO3)nc2[nH]cc(Cl)c12 [Example 57] : IC50 is < 100 nM

What the record says about CCCNc1cc(Nc2ccc(C(=O)N3CCOCC3)c3c2OCCO3)nc2[nH]ccc12 [Example 4, trifluoroacetate] : IC50 is < 100 nM

What the record says about CCNc1cc(Nc2ccc(C(=O)N3CC[C@H](N4CCOCC4)C3)c3c2OCC3)nc2[nH]cc(C(F)(F)F)c12 [Example 215] : IC50 is < 100 nM

What the record says about CNc1cc(Nc2ccc(C(=O)N3CCOCC3)c3c2OCC3)nc2[nH]cc(C(F)(F)F)c12 [Example 52] : IC50 is < 100 nM

----------
target: CLK3 (Homo sapiens); construct: purchased DiscoverX; assay: scanMAX Kinase panel (DiscoverX), % control; assay type: binding; details: <35% = active
Sequence (P49761 whole entry): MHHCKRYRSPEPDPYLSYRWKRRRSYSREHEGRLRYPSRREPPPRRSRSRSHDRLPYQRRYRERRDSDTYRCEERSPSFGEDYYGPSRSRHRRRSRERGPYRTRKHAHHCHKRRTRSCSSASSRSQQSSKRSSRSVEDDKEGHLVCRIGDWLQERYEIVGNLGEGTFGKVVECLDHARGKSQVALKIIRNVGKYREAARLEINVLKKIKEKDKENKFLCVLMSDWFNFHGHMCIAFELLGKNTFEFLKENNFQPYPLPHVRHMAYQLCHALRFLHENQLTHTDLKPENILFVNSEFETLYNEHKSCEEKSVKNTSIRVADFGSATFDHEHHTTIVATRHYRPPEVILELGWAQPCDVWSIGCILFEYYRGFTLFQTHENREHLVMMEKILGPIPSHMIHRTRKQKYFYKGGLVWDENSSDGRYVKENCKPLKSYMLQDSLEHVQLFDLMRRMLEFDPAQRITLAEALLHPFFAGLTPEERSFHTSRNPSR
Property: remaining binding at 1 µM (%)

Previously resolved entries follow.
                           substance_smiles    system_under_test                   property  units  recorded_measurement
0  CCCNc1cc(Nc2ccc(C(=O)N3CCC(N4CCOCC4)CC3)c3c2OCCO3)nc2[nH]cc(C(F)(F)F)c12  CLK3 (Homo sapiens)  remaining binding at 1 µM      %                    13
1  CCNc1cc(Nc2ccc(S(=O)(=O)N3CCC(N4CCOCC4)CC3)c3c2OCCO3)nc2[nH]cc(C(F)(F)F)c12  CLK3 (Homo sapiens)  remaining binding at 1 µM      %                    27

A: CNc1cc(Nc2ccc(P3(=O)CCN(C4CC4)CC3)cc2OC)nc2[nH]cc(C(F)(F)F)c12
B: O=C(c1ccc(Nc2cc(C3CC3)c3c(C(F)(F)F)c[nH]c3n2)c2c1CCO2)N1CC[C@@H](N2CCOCC2)C1
Query string: Endpoint returns whichever of A and B has the numerically higher remaining binding at 1 µM. Provide the label of your selected option as the answer.
Result string: B
